# Tested on: KRas G12D-mediated phosphorylation of ERK
# EXPERIMENTAL_PROTOCOL: Inhibition of KRas G12D-mediated phosphorylation of ERK in AGS cells
# Type: cell-based
# MEASUREMENT_SETUP: Homo sapiens; AGS cells expressing G12D, 3 hours, phospho-ERK normalized to GAPDH
ASSAY_ENDPOINT: pIC50
# pIC50 = -log10(concentration in molar units)

• COC(c1ccc(O)cc1-c1ncc2c(N3CC4CCC(C3)N4)nc(OC[C@@]34CCCN3C[C@H](F)C4)nc2c1F)C(F)(F)F (stereo in doubt) = 5.21
• [2H]C#Cc1cccc2cccc(-c3ncc4c(N5C[C@H]6CC[C@@H](C5)N6)nc(OCC56CCCN5CCC6)nc4c3F)c12 = 6.98
• c1ccc2c(-c3cc4nc(OCC56CCCN5CCC6)nc(N5C[C@H]6CC[C@@H](C5)N6)c4cn3)cccc2c1 = 4.81

query: Supply reported pIC50 belonging to this compound: Cc1cccc(-c2ncc3c(N4C[C@H]5CC[C@@H](C4)N5)nc(OCC45CCCN4CCC5)nc3c2F)c1C(C)C
result: 5.50

###

# STUDY_TARGET: KRas G12D (Homo sapiens (Human), UniProt P01116, G12D)
# Sequence (P01116 other isoform, or with tags, fused parts or gaps G12D): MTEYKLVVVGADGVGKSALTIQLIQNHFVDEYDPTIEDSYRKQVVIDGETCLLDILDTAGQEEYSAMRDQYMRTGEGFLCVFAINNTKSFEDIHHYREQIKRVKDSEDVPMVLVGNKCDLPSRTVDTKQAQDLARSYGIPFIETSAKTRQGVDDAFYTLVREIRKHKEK
# EXPERIMENTAL_PROTOCOL: KRas G12D Binding Assay (TR-FRET displacement)
# MEASUREMENT_SETUP: TR-FRET displacement of Cy5 labelled tracer, GDP-loaded KRAS G12D, 60 minute incubation at 22° C.
pIC50: −log10 of the molar value.
I would appreciate it if you labelled entries Condition met when pIC50 is 6 or higher, otherwise Condition not met.

The following molecules have reported results that may help.
- CSc1cccc2cc(O)cc(-c3ncc4c(N5CC6CCC(C5)N6)nc(OCC56CCCN5C[C@H](F)C6)nc4c3F)c12 (mixture of isomers): Condition met
- [O-][N+]12CCCC1(COc1nc(N3CC4CCC(C3)N4)c3cnc(-c4cccc5cccc(Cl)c45)c(F)c3n1)CCC2 (stereo not drawn): Condition not met
- Oc1cccc(F)c1-c1ncc2c(N3CC4CCC(C3)N4)nc(OCC34CCCN3C[C@H](F)C4)nc2c1F (mixture of isomers): Condition met
- Oc1cc(-c2ncc3c(N4C[C@H]5CC[C@@H](C4)N5)nc(OCCc4ncccn4)nc3c2F)c2ccccc2c1: Condition not met
- FCC1CCC2(COc3nc(N4C[C@H]5CC[C@@H](C4)N5)c4cnc(-c5cccc6cccc(Cl)c56)c(F)c4n3)CCCN12 (stereo partly drawn): Condition met

Turning to the following molecule.
query: Could you tell me if the measured pIC50 of Cn1c(CCOc2nc(N3C[C@H]4CC[C@@H](C3)N4)c3cnc(-c4cc(O)cc5ccccc45)c(F)c3n2)nc2ccccc21 reaches 6 or more?
result: Condition met

###

# Test system: KRas G12D-mediated phosphorylation of ERK
# EXPERIMENTAL_PROTOCOL: Inhibition of KRas G12D-mediated phosphorylation of ERK in AGS cells
# Format: cell-based
# MEASUREMENT_SETUP: Homo sapiens; AGS cells expressing G12D, 3 hours, phospho-ERK normalized to GAPDH
Entries whose IC50 is below 0.3 µM take Criterion met; entries at or above 0.3 µM take Criterion not met.

The following compounds have reported results that may help.
- CC(C)Cn1ccnc1CCOc1nc(N2C[C@H]3CC[C@@H](C2)N3)c2cnc(-c3cc(O)cc4ccccc34)c(F)c2n1: Criterion not met
- CO[C@@H]1C[C@@H]2CN(c3nc(OC[C@@]45CCCN4C[C@H](F)C5)nc4c(F)c(-c5cccc6cccc(Cl)c56)ncc34)C[C@H]1N2: Criterion not met
- Fc1c(-c2cccc3cccc(Cl)c23)ncc2c(N3C[C@H]4CC[C@@H](C3)N4)nc(OCC34CCCN3CC(F)(F)C4)nc12 (some centres unmarked) [Example 93, bis(2,2,2-trifluoroacetate)]: Criterion not met

query: Please check: IC50 for CCc1cccc2cc(O)cc(-c3ncc4c(N5C[C@H]6CC[C@@H](C5)N6)nc(OC[C@@]56CCCN5C[C@H](F)C6)nc4c3F)c12 , strictly under 0.3 µM or not?
result: Criterion met

query: Please check: IC50 for Oc1ccc(SC(F)(F)F)c(-c2ncc3c(N4CC5CCC(C4)N5)nc(OC[C@@]45CCCN4C[C@H](F)C5)nc3c2F)c1 (racemic) , strictly under 0.3 µM or not?
result: Criterion not met

query: Please check: IC50 for Fc1c(-c2c(C(F)(F)F)ccc3[nH]ncc23)ncc2c(N3C[C@H]4CC[C@@H](C3)N4)nc(OCC34CCCN3CCC4)nc12 , strictly under 0.3 µM or not?
result: Criterion not met

query: Please check: IC50 for CN1CCC[C@H]1COc1nc(N2C[C@H]3CC[C@@H](C2)N3)c2cnc(-c3cccc4c3C(C)(C)CC4)c(F)c2n1 [Example 161, bis(2,2,2-trifluoroacetate)] , strictly under 0.3 µM or not?
result: Criterion not met

query: Please check: IC50 for CN1C[C@H](NC(=O)c2cccc(S(=O)(=O)F)c2)C[C@H]1COc1nc(N2C[C@H]3CC[C@@H](C2)N3)c2cnc(-c3cccc4cccc(Cl)c34)c(F)c2n1 [Example 211, tris(2,2,2-trifluoroacetate)] , strictly under 0.3 µM or not?
result: Criterion not met

query: Please check: IC50 for Nc1nccn1CCOc1nc(N2CC3CCC(C2)N3)c2cnc(-c3cccc4cccc(Cl)c34)c(F)c2n1 , strictly under 0.3 µM or not?
result: Criterion not met

query: Please check: IC50 for Fc1ccc2cccc(-c3ncc4c(N5C[C@H]6CC[C@@H](C5)N6)nc(OC[C@@]56CCCN5C[C@H](F)C6)nc4c3F)c2c1F , strictly under 0.3 µM or not?
result: Criterion met

###

# STUDY_TARGET: KRas G12D (Homo sapiens (Human), UniProt P01116, G12D)
# EXPERIMENTAL_PROTOCOL: KRas G12D Binding Assay (TR-FRET displacement)
# MEASUREMENT_SETUP: TR-FRET displacement of Cy5 labelled tracer, GDP-loaded KRAS G12D, 60 minute incubation at 22° C.
ASSAY_ENDPOINT: IC50 (nM)
Your answer should be a plain number; it is taken to be in nM.

Here's what some known entries look like.
• CN1CCC[C@H]1COc1nc(N2C[C@H]3CC[C@@H](C2)N3)c2cnc(-c3cccc4cccc(CCC#N)c34)c(F)c2n1 [Example 117, bis(2,2,2-trifluoroacetate)] = 731
• CO[C@H]1C[C@@H](COc2nc(N3C[C@H]4CC[C@@H](C3)N4)c3cnc(-c4cccc5cccc(Cl)c45)c(F)c3n2)N(C)C1 = 870

query: Supply reported IC50 belonging to this molecule: Oc1cc(-c2ncc3c(N4C[C@H]5CC[C@@H](C4)N5)nc(OCCc4ccccc4F)nc3c2F)c2ccccc2c1
result: 1250

###

# Test system: KRas G12D-mediated phosphorylation of ERK
# EXPERIMENTAL_PROTOCOL: Inhibition of KRas G12D-mediated phosphorylation of ERK in AGS cells
# Format: cell-based
# MEASUREMENT_SETUP: Homo sapiens; AGS cells expressing G12D, 3 hours, phospho-ERK normalized to GAPDH
Structures can show the parent of a compound that is named as a salt.
ASSAY_ENDPOINT: IC50 (µM)
Your answer should be a plain number; it is taken to be in µM.

Here's what some known entries look like.
* Oc1ccc(OC(F)(F)F)c(-c2ncc3c(N4CC5CCC(C4)N5)nc(OCC45CCCN4C[C@H](F)C5)nc3c2F)c1 (mixture of isomers) | 0.0515
* Fc1c(-c2ccccc2OC(F)(F)F)ncc2c(N3C[C@H]4CC[C@@H](C3)N4)nc(OCC34CCCN3CCC4)nc12 [Example 229, bis-hydrochloride] | 11.3
* CN1CCC[C@H]1COc1nc(N2C[C@H]3CC[C@@H](C2)N3)c2cnc(-c3cccc4cccc(Cl)c34)c(F)c2n1 | 2.56

Shifting focus to the compound that follows.
query: Give reported IC50 for Cc1c(-c2cc(O)cc3ccccc23)ncc2c(N3C[C@H]4CC[C@@H](C3)N4)nc(OC[C@@H]3CCCN3C)nc12 (KRas G12D-mediated phosphorylation of ERK)
result: 16.3

All values here come from patent US11453683B1.
